System: proteins that co-immunoprecipitated with DUX4-CTD constructs expressed in MB135 myoblasts
procedure details: LC-MS of proteins co-immunoprecipitated with DUX4-CTD (Table 1) and western validation
Assay type: binding, human
conditions used: sum over all samples
assay metric: SUM of PSMS
Write the value as a bare number.

Query: Could you please provide reported SUM of PSMS for P04899 (protein, UniProt P04899 1-355, looked up, full-length) MGCTVSAEDKAAAERSKMIDKNLREDGEKAAREVKLLLLGAGESGKSTIVKQMKIIHEDGYSEEECRQYRAVVYSNTIQSIMAIVKAMGNLQIDFADPSRADDARQLFALSCTAEEQGVLPDDLSGVIRRLWADHGVQACFGRSREYQLNDSAAYYLNDLERIAQSDYIPTQQDVLRTRVKTTGIVETHFTFKDLHFKMFDVGGQRSERKKWIHCFEGVTAIIFCVALSAYDLVLAEDEEMNRMHESMKLFDSICNNKWFTDTSIILFLNKKDLFEEKITHSPLTICFPEYTGANKYDEAASYIQSKFEDLNKRKDTKEIYTHFTCATDTKNVQFVFDAVTDVIIKNNLKDCGLF ? Thanks!
Response: 29
